Biological target: soluble guanylate cyclase (sGC) (Homo sapiens (Human), UniProt Q02108+Q02153)
Sequence (Q02153 whole entry): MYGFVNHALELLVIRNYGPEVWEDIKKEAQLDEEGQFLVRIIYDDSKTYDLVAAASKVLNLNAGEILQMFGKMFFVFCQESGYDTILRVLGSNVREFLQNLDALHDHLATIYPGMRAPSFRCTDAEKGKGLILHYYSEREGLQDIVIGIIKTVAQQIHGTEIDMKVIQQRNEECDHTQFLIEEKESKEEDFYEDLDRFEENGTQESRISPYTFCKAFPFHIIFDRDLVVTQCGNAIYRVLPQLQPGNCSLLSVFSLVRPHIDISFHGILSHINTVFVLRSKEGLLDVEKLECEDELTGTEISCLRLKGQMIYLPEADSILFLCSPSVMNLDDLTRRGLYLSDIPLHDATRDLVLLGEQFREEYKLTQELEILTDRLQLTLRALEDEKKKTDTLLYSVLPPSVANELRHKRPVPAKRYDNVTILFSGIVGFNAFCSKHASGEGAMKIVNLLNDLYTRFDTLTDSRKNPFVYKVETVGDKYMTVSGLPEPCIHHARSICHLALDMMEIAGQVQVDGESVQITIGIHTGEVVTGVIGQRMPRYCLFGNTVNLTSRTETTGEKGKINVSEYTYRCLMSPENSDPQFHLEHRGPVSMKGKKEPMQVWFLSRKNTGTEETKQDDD
Sequence (Q02108 whole entry): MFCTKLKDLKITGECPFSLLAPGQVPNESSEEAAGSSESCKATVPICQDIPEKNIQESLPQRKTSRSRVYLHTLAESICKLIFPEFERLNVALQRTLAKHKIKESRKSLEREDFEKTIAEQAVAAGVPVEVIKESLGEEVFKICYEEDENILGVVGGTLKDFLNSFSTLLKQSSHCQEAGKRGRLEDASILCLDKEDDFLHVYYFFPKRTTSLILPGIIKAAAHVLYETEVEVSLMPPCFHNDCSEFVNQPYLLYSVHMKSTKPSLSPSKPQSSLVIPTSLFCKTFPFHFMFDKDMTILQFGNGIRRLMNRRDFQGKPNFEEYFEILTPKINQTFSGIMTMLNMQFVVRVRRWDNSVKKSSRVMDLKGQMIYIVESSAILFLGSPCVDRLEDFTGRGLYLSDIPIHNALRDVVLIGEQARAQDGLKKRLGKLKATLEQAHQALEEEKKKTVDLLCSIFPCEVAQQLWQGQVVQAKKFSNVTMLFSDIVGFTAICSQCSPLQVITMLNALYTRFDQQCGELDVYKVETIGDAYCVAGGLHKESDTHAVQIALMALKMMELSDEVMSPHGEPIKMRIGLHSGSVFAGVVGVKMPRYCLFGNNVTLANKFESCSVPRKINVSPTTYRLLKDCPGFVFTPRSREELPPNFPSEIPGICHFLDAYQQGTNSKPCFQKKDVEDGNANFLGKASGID
Assay: sGC-HEK-cGMP assay run with SNP incubation (HEK WC assay)
Assay type: cell-based
Details: in the presence of 10 uM SNP
pEC50: −log10 of the molar value.
// reported pEC50 per item

Worked examples follow.
[[record]]
compound = "CC(C)(C)C(=O)Nc1cnc(-c2cc(-c3ncco3)n(Cc3ccccc3F)n2)nc1N [Compound I-191]"
result_value = "> 4.70"

[[record]]
compound = "N#Cc1cc(-c2ncccn2)nn1Cc1ccccc1F [Compound I-293]"
result_value = "4.22 to 4.40"

[[record]]
compound = "CC(C)(O)C(=O)Nc1cnc(-c2cc(-c3ccon3)n(Cc3ccccc3F)n2)nc1N [Compound I-209]"
result_value = "4.40 to 4.70"

[[record]]
compound = "Nc1nc(-c2cc(-c3ccon3)n(Cc3ccccc3F)n2)ncc1NC(=O)c1nccs1 [Compound I-189]"
result_value = "> 4.70"


Next, consider the following compound.
The compound identified as Clc1ccccc1Cn1nc(-c2ncccn2)cc1-c1ccon1 [Compound I-200] registered its pEC50 at 3.22 to 3.52

====

Biological target: soluble guanylate cyclase (sGC) (Homo sapiens (Human), UniProt Q02108+Q02153)
Assay: sGC-HEK-cGMP assay run with SNP incubation (HEK WC assay)
Type: cell-based
Conditions: in the presence of 10 uM SNP
measured endpoint: EC50

[[record]]
molecule = "Nc1nc(-c2cc(-c3ccon3)n(Cc3ccccc3F)n2)ncc1NC(=O)c1cccc(C(F)(F)F)c1 [Compound I-215]"
measured_endpoint = "EC50"
result_value = "< 20 µM"


EC50 reading for O=S(=O)(c1cc(Cl)ccc1Cl)c1cnc(-c2cc(-c3ccon3)n(Cc3ccccc3F)n2)nc1O [Compound I-242] : 60 to 100 µM

So for COc1cccc(C(=O)Nc2cnc(-c3cc(-c4ccon4)n(Cc4ccccc4F)n3)nc2N)c1 [Compound I-174] , the logged EC50 turned out to be < 20 µM

====

Target: soluble guanylate cyclase (sGC) (Homo sapiens (Human), UniProt Q02108+Q02153)
Test: sGC-HEK-cGMP assay run with SNP incubation (HEK WC assay)
Type: cell-based
Conditions: read-out: HEK WC Assay (% Emax at 1 μM with 10 uM SNP)
measured endpoint: Emax

[[record]]
smiles_data = "Nc1nc(-c2cc(-c3ccon3)n(Cc3ccccc3F)n2)ncc1NC(=O)c1cccc(Cl)c1"
result_value = "40 to 60%"

[[record]]
smiles_data = "Nc1nc(-c2cc(-c3ccon3)n(Cc3ccccc3F)n2)ncc1NC(=O)C12CC3CC(CC(C3)C1)C2"
result_value = "80 to 100%"

[[record]]
smiles_data = "COc1cnc(-c2cc(-c3ccon3)n(Cc3ccccc3F)n2)nc1N"
result_value = "0 to 10%"


Query `Nc1nc(-c2cc(-c3ccon3)n(Cc3ccccc3F)n2)ncc1NC(=O)c1ccccc1Cl` yields Emax of 60 to 80%

Documented Emax of `N#CC1(C(=O)Nc2cnc(-c3cc(-c4ccon4)n(Cc4ccccc4F)n3)nc2N)CC1` : 80 to 100%

Measured Emax, `O=[N+]([O-])c1c(O)nc(-c2cc(-c3ccon3)n(Cc3ccccc3F)n2)nc1O` : 0 to 10%

Briefly, Emax measured for `CN(C(=O)c1ccccc1)c1cnc(-c2cc(-c3ccon3)n(Cc3ccccc3F)n2)nc1N` : 10 to 20%

# Emax of `NCC(=O)Nc1cnc(-c2cc(-c3ccon3)n(Cc3ccccc3F)n2)nc1N` = 0 to 10%

====

Molecular target: soluble guanylate cyclase (sGC) (Homo sapiens (Human), UniProt Q02108+Q02153)
Experiment: sGC-HEK-cGMP assay run with SNP incubation (HEK WC assay)
Type: cell-based
Conditions: read-out: HEK WC Assay (% Emax at 10 μM with 10 uM SNP)
Below is a list of entries, each paired with its recorded Emax value.

[[record]]
smiles_data = "Nc1cnc(-c2cc(-c3ncco3)n(Cc3ccccc3F)n2)nc1N"
result_value = "60 to 80%"

[[record]]
smiles_data = "O=S(=O)(c1cnc(-c2cc(-c3ccon3)n(Cc3ccccc3F)n2)nc1O)N1CCOCC1"
result_value = "40 to 60%"

[[record]]
smiles_data = "Fc1ccccc1Cn1nc(-c2ccccn2)cc1-n1cncn1"
result_value = "0 to 10%"

[[record]]
smiles_data = "Nc1nc(-c2cc(-c3ccon3)n(Cc3ccccc3F)n2)ncc1N1Cc2ccccc2C1=O"
result_value = "60 to 80%"

[[record]]
smiles_data = "Fc1ccccc1Cn1nc(-c2ncccn2)cc1C1CCC1"
result_value = "0 to 10%"

[[record]]
smiles_data = "Nc1nc(-c2cc(-c3ccon3)n(Cc3ccccc3F)n2)ncc1NC(=O)C(F)(F)c1ccccc1"
result_value = "40 to 60%"

[[record]]
smiles_data = "O=S(=O)(c1ccccc1)c1cnc(-c2cc(-c3ncco3)n(Cc3ccccc3F)n2)nc1O"
result_value = "60 to 80%"


Here is another molecule to look at.
Record `CC(C)(C)OC(=O)Nc1cnc(-c2cc(-c3ccon3)n(Cc3ccccc3F)n2)nc1O` , field Emax: 20 to 40%

====

Molecular target: soluble guanylate cyclase (sGC) (Homo sapiens (Human), UniProt Q02108+Q02153)
Assay: sGC-HEK-cGMP assay run with SNP incubation (HEK WC assay)
Format: cell-based
Settings: in the presence of 10 uM SNP
pEC50: −log10 of the molar value.
measured endpoint: pEC50

[[record]]
smiles_data = "Nc1nc(-c2cc(-c3ccon3)n(Cc3ccccc3F)n2)ncc1NC(=O)CCCCl"
result_value = "> 4.70"


pEC50 of `Oc1coc(-c2cc(-c3ncccn3)nn2Cc2ccccc2F)n1` , assay on soluble guanylate cyclase (sGC) (Homo sapiens (Human), UniProt Q02108+Q02153), is 4.22 to 4.40

// assay soluble guanylate cyclase (sGC) (Homo sapiens (Human), UniProt Q02108+Q02153), entry `Nc1nc(-c2cc(-c3ccon3)n(Cc3ccccc3F)n2)ncc1NC(=O)c1ccccn1` , pEC50 value = > 4.70

soluble guanylate cyclase (sGC) (Homo sapiens (Human), UniProt Q02108+Q02153) data for `Nc1nc(-c2cc(-c3ccon3)n(Cc3ccccc3F)n2)ncc1NC(=O)c1ccncc1` ; its pEC50: > 4.70

So the reported pEC50 for `Nc1nc(-c2cc(-c3ccon3)n(Cc3ccccc3F)n2)ncc1NC(=O)C1(c2ccccc2)CCC1` , on soluble guanylate cyclase (sGC) (Homo sapiens (Human), UniProt Q02108+Q02153), turned out to be 4.40 to 4.70

Tested on soluble guanylate cyclase (sGC) (Homo sapiens (Human), UniProt Q02108+Q02153): `CC(C)COC(=O)Nc1cnc(-c2cc(-c3ccon3)n(Cc3ccccc3F)n2)nc1N` . Observed pEC50: > 4.70

The measured pEC50 that `Nc1nc(-c2cc(-c3ccon3)n(Cc3ccccc3F)n2)ncc1Nc1nccs1` showed for soluble guanylate cyclase (sGC) (Homo sapiens (Human), UniProt Q02108+Q02153) is > 4.70

Assay soluble guanylate cyclase (sGC) (Homo sapiens (Human), UniProt Q02108+Q02153), sample `CN(C(=O)C(C)(C)C)c1cnc(-c2cc(-c3ccon3)n(Cc3ccccc3F)n2)nc1N` , pEC50 read: > 4.70

====

Catalogue of pEC50 readings, one per entry.
Biological target: soluble guanylate cyclase (sGC) (Homo sapiens (Human), UniProt Q02108+Q02153)
Assay: sGC-HEK-cGMP assay run with SNP incubation (HEK WC assay)
Assay type: cell-based
Conditions: in the presence of 10 uM SNP
pEC50: −log10 of the molar value.

Recorded pEC50, per entry:
[[record]]
compound = "CC(C)(CO)C(=O)Nc1cnc(-c2cc(-c3ccon3)n(Cc3ccccc3F)n2)nc1N"
system_under_test = "soluble guanylate cyclase (sGC) (Homo sapiens (Human), UniProt Q02108+Q02153)"
result_value = "> 4.70"

[[record]]
compound = "Cc1cccc(C(=O)Nc2cnc(-c3cc(-c4ccon4)n(Cc4ccccc4F)n3)nc2N)c1"
system_under_test = "soluble guanylate cyclase (sGC) (Homo sapiens (Human), UniProt Q02108+Q02153)"
result_value = "> 4.70"

[[record]]
compound = "CC(C)(C)C(=O)Nc1cnc(-c2cc(-c3ccon3)n(Cc3ccccc3F)n2)nc1"
system_under_test = "soluble guanylate cyclase (sGC) (Homo sapiens (Human), UniProt Q02108+Q02153)"
result_value = "3.22 to 3.52"

[[record]]
compound = "COC(=O)Nc1cnc(-c2cc(-c3ccon3)n(Cc3ccccc3F)n2)nc1N"
system_under_test = "soluble guanylate cyclase (sGC) (Homo sapiens (Human), UniProt Q02108+Q02153)"
result_value = "> 4.70"

[[record]]
compound = "Fc1ccccc1Cn1nc(-c2ncccn2)cc1-c1ccon1"
system_under_test = "soluble guanylate cyclase (sGC) (Homo sapiens (Human), UniProt Q02108+Q02153)"
result_value = "> 4.70"


According to the records, this compound `CNc1cnc(-c2cc(-c3ccon3)n(Cc3ccccc3F)n2)nc1N` displays pEC50 of 4.22 to 4.40

pEC50 reading for `c1cnc(-c2cc(-c3ccon3)n(Cc3cncnc3)n2)nc1` : 3.52 to 4.00

// pEC50 lookup, compound = `CC(F)(F)C(=O)Nc1cnc(-c2cc(-c3ccon3)n(Cc3ccccc3F)n2)nc1N` , result: > 4.70
